experiment: logP by HPLC (EEC Directive 79/831 Annex V.A8); type: physicochemical; details: [c] LC-MS, neutral range, pH 7.8, 0.001 molar aqueous ammonium bicarbonate and acetonitrile
reported.property: logP
Lab note: record the figure alone, no unit after it.

Examples from the recorded data:
>>> val("Cc1cc(C(F)(F)F)nn1CC(=O)N1CCN(c2nc(C(=O)Oc3ccc(Cl)cc3Cl)cs2)CC1")
3.87
>>> val("Cc1ccc(Cl)cc1NC(=S)N1CCC(c2nc(C(=O)OCc3ccccc3Br)cs2)CC1")
4.27
>>> val("O=C(OCc1ccccc1Br)c1csc(C2CCN(C(=O)Nc3cc(C(F)(F)F)ccc3Cl)CC2)n1")
4.75

Okay, now this molecule:
Input: Any idea what logP was measured for `O=C(OCc1ccccc1Br)c1csc(C2CCN(C(=O)Nc3cc(Cl)ccc3Cl)CC2)n1` ?
Output: 4.61

###

test: logP by HPLC (EEC Directive 79/831 Annex V.A8); type: physicochemical; settings: [c] LC-MS, neutral range, pH 7.8, 0.001 molar aqueous ammonium bicarbonate and acetonitrile
In this section we review reported logP values for a set of compounds.
Field format: numeric only.

>>> val("COc1ccc(C)cc1NC(=O)N1CCC(F)(c2nc(C(=O)OCc3c(F)cccc3F)cs2)CC1 [Example 173]")
3.92
>>> val("Cc1ccc(Cl)cc1NC(=O)N1CCC(c2nc(C(=O)OCc3ccccc3Br)cs2)CC1 [Example 85]")
4.06

Now consider a different compound.
Input: Consider the compound shown here: Cc1cc(C(F)(F)F)nn1CC(=O)N1CCC(F)(c2nc(C(=O)OC3CCCCC3)cs2)CC1 [Example 170] What is its recorded logP?
Output: 4.09

###

test: logP by HPLC (EEC Directive 79/831 Annex V.A8); type: physicochemical; details: [c] LC-MS, neutral range, pH 7.8, 0.001 molar aqueous ammonium bicarbonate and acetonitrile
Marks after values point to notes of the source that are not given here.
reported.property: logP

>>> val("Cc1cc(C(F)(F)F)nn1CC(=O)N1CCN(c2nc(C(=O)OCc3ccccc3Cl)cs2)CC1 [Example 48]")
"3.64^[c]; 3.64^[b]"
>>> val("COc1ccc(COC(=O)c2csc(N3CCN(C(=O)Cn4nc(C(F)(F)F)cc4C)CC3)n2)cc1 [Example 35]")
"3.19^[c]"
>>> val("Cc1cc(C(F)(F)F)nn1CC(=O)N1CCN(c2nc(C(=O)Sc3ccc4ccccc4c3)cs2)CC1 [Example 45]")
"4.33^[c]; 4.33^[b]"

Field: next molecule
Input: Please give the measured logP for this molecule: O=C(OCc1ccccc1Br)c1csc(C2CCN(C(=O)Nc3cc(C(F)(F)F)ccc3F)CC2)n1 [Example 111]
Output: 4.29^[c]; 4.29^[b]

The reported numbers originate from patent US8501781B2.
